# system: USP1/UAF1 (Homo sapiens, UniProt O94782)
# Sequence (O94782 whole entry): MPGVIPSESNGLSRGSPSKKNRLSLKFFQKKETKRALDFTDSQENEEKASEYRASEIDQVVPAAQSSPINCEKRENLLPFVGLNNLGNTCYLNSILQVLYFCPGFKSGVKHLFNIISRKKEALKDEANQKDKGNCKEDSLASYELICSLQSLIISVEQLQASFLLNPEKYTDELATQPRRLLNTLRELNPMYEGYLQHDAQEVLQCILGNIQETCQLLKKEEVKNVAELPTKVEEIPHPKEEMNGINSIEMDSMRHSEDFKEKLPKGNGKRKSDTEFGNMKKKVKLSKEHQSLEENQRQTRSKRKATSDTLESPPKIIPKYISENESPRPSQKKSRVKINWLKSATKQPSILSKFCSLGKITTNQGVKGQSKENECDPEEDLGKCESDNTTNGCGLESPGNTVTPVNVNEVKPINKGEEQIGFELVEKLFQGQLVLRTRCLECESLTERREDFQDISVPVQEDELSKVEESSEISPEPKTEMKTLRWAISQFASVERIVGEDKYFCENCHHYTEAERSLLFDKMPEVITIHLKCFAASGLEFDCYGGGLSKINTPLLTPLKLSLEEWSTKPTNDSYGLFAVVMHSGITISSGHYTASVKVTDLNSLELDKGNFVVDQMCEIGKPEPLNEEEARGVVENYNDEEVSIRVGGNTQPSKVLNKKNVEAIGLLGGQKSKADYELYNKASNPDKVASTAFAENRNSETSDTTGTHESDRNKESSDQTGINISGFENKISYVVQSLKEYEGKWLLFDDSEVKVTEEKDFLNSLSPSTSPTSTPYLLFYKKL
# Sequence (Q8TAF3 whole entry partner): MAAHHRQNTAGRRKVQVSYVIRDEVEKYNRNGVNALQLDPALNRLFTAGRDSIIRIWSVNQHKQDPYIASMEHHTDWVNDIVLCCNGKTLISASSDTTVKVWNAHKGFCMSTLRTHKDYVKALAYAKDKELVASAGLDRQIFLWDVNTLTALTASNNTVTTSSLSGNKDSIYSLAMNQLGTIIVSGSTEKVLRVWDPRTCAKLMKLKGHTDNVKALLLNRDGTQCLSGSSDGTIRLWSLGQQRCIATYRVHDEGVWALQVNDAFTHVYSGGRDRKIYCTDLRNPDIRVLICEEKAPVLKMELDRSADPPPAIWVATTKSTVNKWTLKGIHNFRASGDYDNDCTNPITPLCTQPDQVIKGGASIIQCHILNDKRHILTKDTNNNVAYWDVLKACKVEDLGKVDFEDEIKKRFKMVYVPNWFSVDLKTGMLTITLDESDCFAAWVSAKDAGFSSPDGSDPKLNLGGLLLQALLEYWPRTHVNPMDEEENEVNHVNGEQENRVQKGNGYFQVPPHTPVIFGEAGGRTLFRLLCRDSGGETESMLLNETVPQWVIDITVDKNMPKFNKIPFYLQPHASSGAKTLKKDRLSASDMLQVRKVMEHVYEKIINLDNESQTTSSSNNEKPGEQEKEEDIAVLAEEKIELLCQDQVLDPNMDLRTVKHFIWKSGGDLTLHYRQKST
# testProtocol: Assay on USP1/UAF1 enzymatic inhibitory activity (Ub-Rhodamine)
# recordedConditions: USP1/UAF1 protein 10 nM, Ub-Rhodamine 300 nM, 30 min pre-incubation, 90 min reaction
measuredQuantity: IC50

The examples below pair each entry with its known result.
[2H]C([2H])([2H])n1c(=O)n(Cc2ccc(-c3nc(C(F)(F)F)cn3C(C)C)cc2)c2c(F)c(-c3c(OC)ncnc3C3CC3)ncc21 : < 0.05 µM
[2H]C([2H])([2H])n1c(=O)n(Cc2ccc(-n3nc(C(C)(F)F)cc3C)cc2)c2c(F)c(-c3c(OC)ncnc3C3CC3)ncc21 : 0.05 to 0.1 µM
COc1ncnc(C2CC2)c1-c1ncc2c(c1F)n(Cc1ccc(-c3nc(C(F)(F)F)cn3C)cc1)c(=O)n2C : < 0.05 µM

Here is another molecule to look at.
Fill in: IC50 of [2H]C([2H])([2H])n1c(=O)n(Cc2ccc(-n3nc(C(F)(F)F)cc3C)cc2)c2c(F)c(-c3c(OC)ncnc3C3CC3)ncc21 is ___
< 0.05 µM
